Molecular target: PTGER2 (EP2) (Homo sapiens (Human), UniProt P43116)
Sequence (P43116 whole entry): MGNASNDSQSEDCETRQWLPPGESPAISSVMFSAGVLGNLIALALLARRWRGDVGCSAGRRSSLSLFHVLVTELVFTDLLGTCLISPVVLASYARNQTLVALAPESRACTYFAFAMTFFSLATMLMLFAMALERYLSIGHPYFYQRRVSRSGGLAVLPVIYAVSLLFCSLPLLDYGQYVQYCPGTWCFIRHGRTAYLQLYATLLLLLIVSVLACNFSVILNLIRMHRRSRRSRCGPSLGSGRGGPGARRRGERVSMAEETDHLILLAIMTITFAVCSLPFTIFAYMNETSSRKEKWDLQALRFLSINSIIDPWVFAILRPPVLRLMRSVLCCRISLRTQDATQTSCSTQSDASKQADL
Assay: hEP2 b-arrestin assay (PathHunter HEK 293 PTGER2 b-arrestin cells)
Format: cell-based
Settings: antagonistic activity on hEP2; mean where measured multiple times
Procedure: The assay is using the PathHunter™ HEK 293 PTGER2 and PTGER4 b-arrestin cell lines from DiscoverX. The system is based on the Enzyme Fragment Complementation Technology. […] Twelve μl of reagent are transferred to the assay plate and incubate for 1 hour at room temperature in the dark. Luminescence counts are read on a BMG Fluostar Optima reader according to manufacturer's instructions. […] (each concentration is measured in duplicate)
// reported IC50 for each item listed
Give the value in nM but do not write nM after it.

Reference set, count: 3
CCc1cc(-c2cc(NCCn3c(C)cc4c(C)cccc43)ncn2)ccc1C(=O)O	9
COc1ccc(F)c2c1cc(C)n2CCNc1cc(-c2ccc(C(=O)NCCO)cc2)ncn1	67
CNc1cc(-c2cc(NCCn3c(C)cc4c(OC)cccc43)ncn2)ccc1C(=O)O	3

Continue with the molecule presented below.
Query :: Look up and state reported IC50 for Cc1ccc(F)c2c1cc(C)n2CCNc1cc(-c2ccc(-c3nnc[nH]3)cc2)ncn1
Result :: 113

----------
Biological target: PTRGER4 (EP4) (Homo sapiens (Human), UniProt P35408)
Sequence (P35408 whole entry, looked up): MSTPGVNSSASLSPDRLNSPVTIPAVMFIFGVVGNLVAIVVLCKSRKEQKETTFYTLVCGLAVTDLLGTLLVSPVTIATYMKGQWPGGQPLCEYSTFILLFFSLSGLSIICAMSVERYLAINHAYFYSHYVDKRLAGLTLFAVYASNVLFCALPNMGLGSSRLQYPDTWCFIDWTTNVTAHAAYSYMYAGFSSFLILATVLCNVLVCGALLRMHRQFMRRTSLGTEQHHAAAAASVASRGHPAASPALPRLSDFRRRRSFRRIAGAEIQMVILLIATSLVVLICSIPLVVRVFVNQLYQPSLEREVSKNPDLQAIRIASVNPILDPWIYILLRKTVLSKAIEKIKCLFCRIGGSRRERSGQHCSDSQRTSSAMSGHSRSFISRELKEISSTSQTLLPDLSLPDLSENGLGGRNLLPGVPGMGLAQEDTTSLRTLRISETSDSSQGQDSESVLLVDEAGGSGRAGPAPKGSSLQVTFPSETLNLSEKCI
Test: hEP4 b-arrestin assay (PathHunter HEK 293 PTGER4 b-arrestin cells)
Format: cell-based
Conditions: antagonistic activity on hEP4; mean where measured multiple times
Please note: IC50 exactly at 400 nM is criterion not met. Only values below 400 nM get criterion met.

COc1ccc(F)c2c1cc(C)n2CCNc1cc(-c2ccc(-c3csc(C)n3)cc2)ncn1 [compound 321]	criterion not met

Query :: Bench note: check whether CCOc1cc(-c2cc(NCCn3c(C)cc4c(Cl)c(F)cc(Cl)c43)ncn2)ccc1C(=O)O [compound 351] shows IC50 below 400 nM
Result :: criterion not met

Query :: Lab log: compare recorded IC50 with 400 nM; is it strictly lower for CCc1cc(-c2cc(NCCn3c(C)cc4c(OC)cccc43)ncn2)ccc1C(=O)O [compound 223] ?
Result :: criterion not met

----------
Biological target: EP2 (Homo sapiens (Human), UniProt P43116);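 further: antagonism of PGE2-stimulated cAMP accumulation in SF295 human glioblastoma cells with endogenous EP2, cAMP read by HTRF, expressed relative to DMSO control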
Sequence (P43116 whole entry): as the sequence (P43116 whole entry) above
Below is a list of entries, each paired with its recorded pIC50 value.
Worth noting: pIC50 values are minus log10 of concentrations stated in mol/L.

Some entries whose results are on file:
CCCc1cc(-c2cc(NCCn3c(C)cc4c(OC)cccc43)ncn2)cc(F)c1C(=O)O [compound 445]	8.30
COc1cc(F)cc2c1cc(C)n2CCNc1cc(-c2ccc(-c3cc(C)no3)cc2)ncn1 [compound 715]	7.80
COc1cc(F)cc2c1cc(C)n2CCNc1cc(-c2ccc(-c3ncccn3)cc2)ncn1 [Example 755]	7.39
COc1ccc(F)c2c1cc(C)n2CCNc1cc(-c2ccc(C(=O)CC#N)cc2)ncn1 [compound 710]	7.82

Query :: Indicate the recorded pIC50 value for this molecule: Cc1cc(F)c(F)c2c1cc(C)n2CCNc1cc(-c2ccc(-c3noc(=O)[nH]3)cc2)ncn1 [compound 680]
Result :: 7.25

Query :: Specify reported pIC50 for the molecule shown: COc1cc(F)c(F)c2c1cc(C)n2CCNc1cc(-c2ccc3c(ccn3C)c2)ncn1 [compound 707]
Result :: 7.42

----------
Molecular target: UniProtKB P35408
Assay: hEP4 cAMP assay (BT549 breast cancer cells, HTRF cAMP)
Format: cell-based
Details: antagonistic activity; mean values where measured multiple times
Returns: string. Value is 1 if measured IC50 is below 400 nM, and -1 if it is greater than or equal to it.

Solved cases (3 shown):
COc1cccc2c1cc(C)n2CCNc1cc(-c2ccc(-c3nc(C(=O)O)cs3)cc2)ncn1	1
COc1ccc(F)c2c1cc(C)n2CCNc1cc(-c2cc(C(F)(F)F)c(C(=O)O)s2)nc(C)n1	1
COc1ccc(F)c2c1cc(C)n2CCNc1cc(-c2ccc(-n3nc(C)cc3C)cc2)ncn1	-1

# ---- query compound ----
Query :: Quick check: IC50 of CCCCOc1cc(-c2cc(NCCn3c(C)cc4c(C)cc(F)cc43)ncn2)ccc1C(=O)O under 400 nM?
Result :: 1
